# System: ECHCG
# Assay Info: Pre-emergence herbicidal activity, glasshouse pot test
# Type: in vivo
# Condition Notes: rate 1000 g/Ha, evaluated after 13 days, scale 0-5
# Lookup of reported ECHCG damage score, application pre-emergence keyed by entry
Enter the number alone.

>>> result_number("CCN1C(=O)N(c2cc(C(F)(F)F)ccn2)C(O)C1C (stereo not shown)")
4

INPUT: // lookup ECHCG damage score, application pre-emergence for COc1cnc(N2C(=O)N(C)C(C)C2O)cc1C(F)(F)F (stereo not shown)
OUTPUT: 5

INPUT: // lookup ECHCG damage score, application pre-emergence for COCN1C(=O)N(c2cc(C(F)(F)F)ccn2)C(O)C1C (stereo not shown)
OUTPUT: 3

INPUT: // lookup ECHCG damage score, application pre-emergence for C[C@H]1C(O)N(c2cc(C(F)(F)F)ccn2)C(=O)N1C (mixture of isomers)
OUTPUT: 5
